- Target entity: UniProt:P05981
- Sequence (P05981 1-162 limits assumed): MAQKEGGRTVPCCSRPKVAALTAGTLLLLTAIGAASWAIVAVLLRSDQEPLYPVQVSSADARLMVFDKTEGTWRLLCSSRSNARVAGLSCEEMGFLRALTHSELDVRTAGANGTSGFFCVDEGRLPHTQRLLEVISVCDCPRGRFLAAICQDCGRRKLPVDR
- Sequence (P05981 163-417 limits assumed): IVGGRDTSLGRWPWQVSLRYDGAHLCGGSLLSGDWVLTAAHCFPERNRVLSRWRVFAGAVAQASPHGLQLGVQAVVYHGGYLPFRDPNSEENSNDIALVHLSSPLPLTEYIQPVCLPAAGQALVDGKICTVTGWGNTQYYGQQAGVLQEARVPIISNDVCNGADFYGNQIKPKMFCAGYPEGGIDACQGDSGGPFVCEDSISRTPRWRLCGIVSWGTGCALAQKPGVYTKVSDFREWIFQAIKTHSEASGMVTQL
- Test method notes: Inhibition of human recombinant hepsin using Boc-QAR-AMC as substrate preincubated for 30 mins followed by substrate addition measured for 15 to 120 mins by plate reader analysis
Readout name: Ki (nM)

Smiles notation: CC(=O)N[C@@H](CC(C)C)C(=O)N[C@@H](CCCNC(=N)N)C(=O)c1nccs1
Unit annotation: nM
Operator symbol: =
Measured value: 22.4
--
Smiles notation: CC(=O)N[C@@H](CC(C)C)C(=O)N[C@H](CCCNC(=N)N)C(=O)c1nccs1
Unit annotation: nM
Operator symbol: =
Measured value: 21.5
--
Smiles notation: CC(=O)N[C@@H](CCCCN)C(=O)N[C@@H](CCC(N)=O)C(=O)N[C@@H](CC(C)C)C(=O)N[C@@H](CCCNC(=N)N)C(=O)c1nccs1
Unit annotation: nM
Operator symbol: =
Measured value: 1.45
--
Smiles notation: CC(=O)N[C@@H](CCC(N)=O)C(=O)N[C@@H](CC(C)C)C(=O)N[C@H](CCCNC(=N)N)C(=O)c1nccs1
Unit annotation: nM
Operator symbol: =
Measured value: 2.88
--
Smiles notation: CC(=O)N[C@@H](CCC(N)=O)C(=O)N[C@@H](CC(C)C)C(=O)N[C@@H](CCCNC(=N)N)C(=O)c1nccs1
Unit annotation: nM
Operator symbol: =
Measured value: 1.04
--
Smiles notation: CC(=O)N[C@@H](CC(C)C)C(=O)N[C@@H](CCCNC(=N)N)C(=O)c1ccccc1
Unit annotation: nM
Operator symbol: >
Measured value: 10000
--
Smiles notation: CC(=O)N[C@@H](CC(C)C)C(=O)N[C@H](CCCNC(=N)N)C(=O)c1nc2ccccc2s1
Unit annotation: nM
Operator symbol: =
Measured value: 2.91
